Data origin, for the record: paper PMC10250233

- target or system: CST (CTC1-STN1-TEN1) (human, UniProt Q2NKJ3;Q9H668;Q86WV5 1-1217;1-368;1-123)
- Sequence (Q2NKJ3 whole entry, chain 1 of 3): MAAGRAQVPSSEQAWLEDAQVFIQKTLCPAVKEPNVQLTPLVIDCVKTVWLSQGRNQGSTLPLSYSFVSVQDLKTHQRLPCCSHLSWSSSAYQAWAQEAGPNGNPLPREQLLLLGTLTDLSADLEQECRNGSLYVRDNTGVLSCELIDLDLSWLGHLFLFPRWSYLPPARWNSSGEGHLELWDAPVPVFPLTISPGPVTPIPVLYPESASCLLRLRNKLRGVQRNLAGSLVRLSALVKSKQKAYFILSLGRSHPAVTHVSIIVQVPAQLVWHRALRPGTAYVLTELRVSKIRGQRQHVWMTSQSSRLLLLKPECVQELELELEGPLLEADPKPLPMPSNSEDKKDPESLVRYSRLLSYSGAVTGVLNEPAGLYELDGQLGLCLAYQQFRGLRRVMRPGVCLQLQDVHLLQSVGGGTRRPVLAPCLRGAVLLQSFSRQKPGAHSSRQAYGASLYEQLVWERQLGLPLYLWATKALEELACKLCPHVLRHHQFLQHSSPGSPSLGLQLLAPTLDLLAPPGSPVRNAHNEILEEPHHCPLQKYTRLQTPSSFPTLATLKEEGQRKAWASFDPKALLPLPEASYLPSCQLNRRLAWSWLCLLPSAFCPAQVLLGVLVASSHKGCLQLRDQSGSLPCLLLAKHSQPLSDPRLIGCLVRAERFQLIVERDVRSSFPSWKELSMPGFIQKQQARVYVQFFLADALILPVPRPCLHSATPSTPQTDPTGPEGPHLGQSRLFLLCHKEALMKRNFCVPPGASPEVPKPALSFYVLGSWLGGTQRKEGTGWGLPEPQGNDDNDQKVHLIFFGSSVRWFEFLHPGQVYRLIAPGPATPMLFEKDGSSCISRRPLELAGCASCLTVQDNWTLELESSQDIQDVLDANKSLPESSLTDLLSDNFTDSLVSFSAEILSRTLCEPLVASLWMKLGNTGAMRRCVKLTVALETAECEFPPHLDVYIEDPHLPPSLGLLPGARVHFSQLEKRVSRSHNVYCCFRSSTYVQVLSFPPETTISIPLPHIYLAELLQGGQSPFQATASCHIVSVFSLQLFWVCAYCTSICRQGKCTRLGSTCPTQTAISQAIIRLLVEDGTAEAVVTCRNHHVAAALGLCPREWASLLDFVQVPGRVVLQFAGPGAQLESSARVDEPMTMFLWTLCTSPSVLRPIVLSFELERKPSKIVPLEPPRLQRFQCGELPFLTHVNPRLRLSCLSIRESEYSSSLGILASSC
- Sequence (Q9H668 whole entry, chain 2 of 3): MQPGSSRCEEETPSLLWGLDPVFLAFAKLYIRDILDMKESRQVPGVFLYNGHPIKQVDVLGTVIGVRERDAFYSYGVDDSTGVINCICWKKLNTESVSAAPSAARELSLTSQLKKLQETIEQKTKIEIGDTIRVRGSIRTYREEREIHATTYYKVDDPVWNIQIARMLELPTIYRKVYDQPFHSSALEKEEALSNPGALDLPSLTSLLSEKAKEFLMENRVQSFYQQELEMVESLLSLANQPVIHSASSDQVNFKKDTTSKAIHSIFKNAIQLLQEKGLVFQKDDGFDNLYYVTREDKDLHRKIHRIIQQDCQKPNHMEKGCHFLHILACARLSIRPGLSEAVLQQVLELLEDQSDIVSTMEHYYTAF
- Sequence (Q86WV5 whole entry, chain 3 of 3): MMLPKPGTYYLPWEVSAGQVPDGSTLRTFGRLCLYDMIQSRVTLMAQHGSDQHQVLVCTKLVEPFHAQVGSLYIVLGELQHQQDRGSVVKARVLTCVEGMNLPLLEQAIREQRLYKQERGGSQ
- assay remarks: fluorescence anisotropy; 200 mM NaCl; FA: 200 mM NaCl, KCl or LiCl, 20 mM HEPES pH 7.4, 1 mM DTT, 22-25 C, 375 or 750 pM oligo, Kd,app +/- SEM; EMSA: 20 mM HEPES pH 7.4, 200 mM KCl, 1 nM 32P oligo
- condition parameters: protein: recombinant; tags: 2xFLAG N-term on CTC1; 6xHis N-term on STN1 and TEN1; copies: 1;1;1; label: 5' fluorescein; intramolecular G4 at 5' end, 18 nt 3' tail; linear in LiCl
measurement name: Kd (nM)
Provide only the numeric value, understood in nM.

Given AGGGTTAGGGTTAGGGTTAGGGTGAGTGTGAGTGTGAGTG (structured_DNA) [Tel40 5' G4] , state its recorded Kd.
1.47
